Each recorded value in this set is attributed to ChEMBL document CHEMBL4425130.

# Method notes: Solubility of the compound in phosphate buffer at pH 7.4 at 25 degC after 24 hrs by ultraperformance LC/MS/MS method
This listing pairs molecules with measured solubility at 24 h.
Endpoint label: solubility at 24 h (µM)

>>> measured("CC1=C2CC(=O)NCc3cc(Cl)ccc3CNC(=O)OCOC(=O)c3cccc(c3)CNN(CC1)C2=O")
120
>>> measured("CC1=C2CC(=O)NCc3cc(Cl)ccc3CNC(=O)OC(C)OC(=O)c3cccc(c3)CNN(CC1)C2=O (stereo not drawn)")
340

* * *

# Target entity: Coagulation factor XI (Homo sapiens, UniProt P03951)
# Sequence (P03951 19-387 limits assumed): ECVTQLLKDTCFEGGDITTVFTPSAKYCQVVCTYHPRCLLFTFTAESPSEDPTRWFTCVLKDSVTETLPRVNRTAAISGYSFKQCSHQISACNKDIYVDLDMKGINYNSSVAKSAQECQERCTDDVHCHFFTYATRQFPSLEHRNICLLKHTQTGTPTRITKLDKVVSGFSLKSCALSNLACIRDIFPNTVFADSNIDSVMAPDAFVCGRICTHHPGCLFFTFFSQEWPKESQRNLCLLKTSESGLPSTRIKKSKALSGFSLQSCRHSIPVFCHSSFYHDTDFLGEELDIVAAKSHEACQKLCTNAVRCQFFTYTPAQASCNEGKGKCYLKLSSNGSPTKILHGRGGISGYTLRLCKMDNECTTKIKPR
# Sequence (P03951 388-625 limits assumed): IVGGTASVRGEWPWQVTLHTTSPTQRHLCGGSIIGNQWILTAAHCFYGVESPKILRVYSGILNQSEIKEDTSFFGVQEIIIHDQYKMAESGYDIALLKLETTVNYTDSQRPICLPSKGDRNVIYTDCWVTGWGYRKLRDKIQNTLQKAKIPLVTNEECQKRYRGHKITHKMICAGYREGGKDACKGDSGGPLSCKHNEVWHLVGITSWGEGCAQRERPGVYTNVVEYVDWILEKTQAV
pKi: −log10 of the molar value.
Endpoint label: pKi

>>> measured("CC1=C(CC(=O)NCc2cc(Cl)ccc2CN)C(=O)N(NCc2ccccc2)CC1")
"< 4.72"
